B1: glmS ribozyme (parent)
chain: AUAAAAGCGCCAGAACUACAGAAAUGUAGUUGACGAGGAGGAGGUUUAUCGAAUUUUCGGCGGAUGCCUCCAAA

Variants of: B1
assayExplanation: self-cleavage kobs at 640 uM GlcN6P; higher = faster cleavage; RNA array
protocolConditions: with glucosamine-6-phosphate
Fewer inactive variants are shown than the library holds.
experimentalEndpoint: self-cleavage kobs at 640 uM GlcN6P

stdin: # self-cleavage kobs at 640 uM GlcN6P lookup, item G38C G44U
stdout: < 1e-05 s⁻¹

stdin: So what's the measured self-cleavage kobs at 640 uM GlcN6P for this one? U49A U55C C71G
stdout: < 1e-05 s⁻¹

stdin: I am curious: what self-cleavage kobs at 640 uM GlcN6P value has been reported for G40A U69A ?
stdout: < 1e-05 s⁻¹

stdin: Name the reported self-cleavage kobs at 640 uM GlcN6P value associated with the variant A14G U55G
stdout: 0.00984 s⁻¹

stdin: Which self-cleavage kobs at 640 uM GlcN6P value belongs to U31G C71A ?
stdout: 0.000376 s⁻¹

stdin: Fill in: self-cleavage kobs at 640 uM GlcN6P of G7C A12G U46G U47A is ___
stdout: < 1e-05 s⁻¹

stdin: What measured self-cleavage kobs at 640 uM GlcN6P goes with G9U G60A G66U ?
stdout: < 1e-05 s⁻¹

stdin: Value lookup for self-cleavage kobs at 640 uM GlcN6P; key = G13A A36G
stdout: < 1e-05 s⁻¹

Every entry's value here was drawn from the supplement of paper PMC7125110.
